This section presents IC50 values reported for UniProt:P07333 in the literature.

Worked set:
Prompt line: Recorded IC50 for CCOc1c(OCc2sc(C)nc2C)cccc1C(=O)c1c[nH]c2ncccc12 , please?
Response line: ≤ 10 µM

Prompt line: Now this one: CCC(=O)c1c[nH]c2ncc(-c3ccc(CC(=O)Nc4cnc(C)c(C(F)(F)F)c4)c(F)c3)cc12
Response line: 0.0001 to 10 µM

Prompt line: Then CC(C)C[C@H](NCc1ccc(-c2cnc(N)c(NCc3c(Cl)cccc3Cl)n2)cc1)C(=O)OC1CCCC1 ?
Response line: > 5 µM

Next:
Prompt line: Can you share its IC50? I mean this compound: COc1cc(Cc2c[nH]c3ncccc23)cc(F)c1OCc1ccc(Cl)cc1
Response line: ≤ 10 µM

Prompt line: Request: FC(F)(F)c1ccc(CNc2ccc(Cc3c[nH]c4ncnc(C5CCCC5)c34)cn2)cn1
Response line: ≤ 10 µM

Prompt line: Next record, please: Cc1cncc(C(=O)Nc2cccc([C@@H](C)Oc3cc(Cl)cnc3N)c2)c1
Response line: ≤ 0.05 µM

Prompt line: Also need CCCCNC(=O)Nc1ccc(F)c(C(=O)c2c[nH]c3ncc(-c4cccnc4)cc23)c1 , thanks.
Response line: ≤ 10 µM

Prompt line: What do you have for CCCCNC(=O)n1ccc2c(C(=O)c3c[nH]c4ncc(-c5ccc(OC)nc5)cc34)cccc21 ?
Response line: ≤ 10 µM

----------
// merged dataset of IC50 values, system = UniProtKB P07333, multiple refs

Some compounds with known IC50 results, for comparison:
Prompt line: State the recorded IC50 for this entry: CCc1ccc(Nc2ccc(C(=O)c3c[nH]c4ncnc(NC(C)C)c34)c(F)n2)cn1
Response line: < 0.01 µM

Prompt line: Follow-up entry: CN(C)CC(=O)N1CCc2ccc(Nc3ncc4cc(C#N)c(=O)n(C5CCCC5)c4n3)cc2C1
Response line: 0.0095 µM

Prompt line: Also, CCCS(=O)(=O)Nc1ccc(F)c(C(=O)c2c[nH]c3ncc(-c4ccccc4)cc23)c1F please.
Response line: ≤ 10 µM

Prompt line: Now give it for Cn1ccnc1COc1ccc(F)c(C(=O)c2c[nH]c3ncc(Cl)cc23)c1F too.
Response line: ≤ 10 µM

Prompt line: Let us now turn to COc1cccc(C(=O)c2c[nH]c3ncc(-c4ccc(C#N)cc4)cc23)c1F
Response line: ≤ 10 µM

Prompt line: And what about the compound O=C(c1cc(NS(=O)(=O)c2cccc(F)c2)ccc1F)c1c[nH]c2ncc(Cl)cc12 ?
Response line: ≤ 10 µM

Prompt line: Entry to check: CNC(=O)c1cn(-c2ccc3c(c2)CCC3)c2nc(Nc3cccc(N4CCNCC4)c3)ncc2c1=O
Response line: 0.00046 µM

Now for another entry.
Prompt line: Please give the measured IC50 for this compound: CCCS(=O)(=O)Nc1ccc(F)c(C(=O)c2c[nH]c3ncccc23)c1
Response line: ≤ 10 µM

----------
The entries below pair molecules with pIC50 values for Macrophage colony-stimulating factor 1 receptor (Homo sapiens), as found in several publications.
pIC50: −log10 of the molar value.

Recorded pIC50, per entry:
Prompt line: Query (molecule): COc1cccc(NC(=O)Nc2cccc(C(=O)c3c[nH]c4ncccc34)c2)c1 ; field requested: pIC50
Response line: ≥ 5.00

Prompt line: Do the same for NC(=O)c1cccc(-c2cnc3[nH]cc(Cc4ccccc4OCc4ccccc4)c3c2)c1 please
Response line: ≥ 5.00

Prompt line: Also COc1cncc(Nc2ccc(C(=O)c3c[nH]c4ncnc(NC(C)C)c34)c(F)n2)c1 ?
Response line: > 7.00

Prompt line: Now try Cc1noc(NC(=O)Nc2cccc(C(=O)c3c[nH]c4ncc(Cl)cc34)c2)c1C .
Response line: ≥ 5.00

Prompt line: COc1cc(OC)cc(C(=O)c2c[nH]c3ncc(-c4ccccc4)cc23)c1 , same question.
Response line: ≥ 5.00

Prompt line: What about Cc1ccc2c(Nc3cccc(Cl)c3F)nccc2c1NC(=O)c1csc2c(N)ncnc12 ?
Response line: 8.00

Prompt line: Moving on to CCCS(=O)(=O)Nc1ccc(Cl)c(C(=O)c2c[nH]c3ncc(Br)cc23)c1F
Response line: ≥ 5.00

Prompt line: // query: Cc1cc(F)ccc1S(=O)(=O)Nc1ccc(F)c(C(=O)c2c[nH]c3ncc(Cl)cc23)c1F
Response line: ≥ 5.00

***
Prompt line: Any idea what pIC50 was measured for O=C(Nc1cccc(Cl)c1)Nc1cccc(C(=O)c2c[nH]c3ncccc23)c1 ?
Response line: ≥ 5.00

Prompt line: Queued: CC(C)c1ncc(CNc2ccc(Cc3c[nH]c4ncncc34)c(F)n2)cn1
Response line: ≥ 5.00

Prompt line: Moving on to COc1cc2nccc(Oc3cnc(NC(=O)c4nn(C(C)C)cc(-c5ccc(F)cc5)c4=O)nc3)c2cc1OC
Response line: 7.21

Prompt line: Same lookup for Fc1ccc(OCc2ccccc2)c(F)c1Cc1c[nH]c2ncccc12 , please.
Response line: ≥ 5.00

Prompt line: Would you mind doing CCc1ccc(Nc2ccc(C(=O)c3c[nH]c4ncnc(NCC(C)C)c34)c(F)n2)cn1 as well?
Response line: > 7.00
